- System: MV4-11
- Procedure Text: CellTox Green cytotoxicity fluorescence relative to DMSO vehicle (fold of vehicle RFU); higher = more cell death (loss of membrane integrity), active = 2 or more
- Experimental Conditions: 1 µM; 48 h
Measured Parameter: CellTox Green cytotoxicity fluorescence
# respond with the number and nothing more

Known CellTox Green cytotoxicity fluorescence results, listed for orientation:
| Molecule | Numeric Value |
| --- | --- |
| CCOC(=O)C1=C(N)Oc2ccc(Br)cc2C1C(C#N)C(=O)OCC (configuration not stated) | 0.957 |
| CCCC[C@@H](C=O)NC(=O)[C@H](CC(C)C)NC(=O)OCc1ccccc1 | 1.01 |
| CC[C@@]1(O)C(=O)OCc2c1cc1n(c2=O)Cc2cc3cc(O)ccc3nc2-1 [(S)-10-Hydroxycamptothecin] | 2.3 |
| COc1ccc(CCNCc2ccc(OCc3ccc(Cl)nc3)c(OC)c2)cc1OC | 0.949 |
| CC[C@H](NC(=O)[C@H](C)NC)C(=O)N1C[C@@H](O)C[C@H]1Cc1c(-c2[nH]c3cc(F)ccc3c2C[C@@H]2C[C@H](O)CN2C(=O)[C@H](CC)NC(=O)[C@H](C)NC)[nH]c2cc(F)ccc12 | 1.2 |
| Cn1cc(-c2ccc3c(c2)CCN3C(=O)Cc2cccc(C(F)(F)F)c2)c2c(N)ncnc21 | 1.34 |

Consider now this further molecule.
Query block: Give a short answer stating reported CellTox Green cytotoxicity fluorescence for "Nc1ccccc1NC(=O)c1cnccn1" .
Result block: 0.989

###

- Test system: MV4-11
- Procedure Text: CellTox Green cytotoxicity fluorescence relative to DMSO vehicle (fold of vehicle RFU); higher = more cell death (loss of membrane integrity), active = 2 or more
- Experimental Conditions: 1 µM; 72 h
Your response should consist of one outcome taken from 1 for active, -1 for inactive

# count of solved cases: 8
| Compound | Qualitative Label |
| --- | --- |
| c1ccc2c(CCNc3ccc(Nc4ccncc4)cc3)c[nH]c2c1 | 1 |
| C=CCc1cccc(/C=N/NC(=O)CN2CCN(Cc3ccccc3)CC2)c1O | -1 |
| O=C1NC(=NCc2cccs2)S/C1=C\c1ccc2ncccc2c1 | -1 |
| Nc1nc(F)nc2c1ncn2[C@@H]1O[C@H](CO)[C@@H](O)[C@@H]1O | -1 |
| CC(C)c1ccccc1Cc1cc(C(=O)Nc2ccc(S(=O)(=O)c3ccccc3C(C)(C)C)cc2)c(O)c(O)c1O | -1 |
| CN(C)CCCCC(=O)Nc1ccc(NC(=S)NC(=O)c2ccc(C(C)(C)C)cc2)cc1 | -1 |
| COC(=O)[C@H](CCSC)NC(=O)c1ccc(NC[C@@H](N)CS)cc1-c1ccccc1 | -1 |
| Nc1cccc2c1CN(C1CCC(=O)NC1=O)C2=O (centres undefined) [Lenalidomide] | -1 |

Query block: Hello, I am checking results. What call was entered for "COc1ccc(C2=N[C@@H](c3ccc(Cl)cc3)[C@@H](c3ccc(Cl)cc3)N2C(=O)N2CCNC(=O)C2)c(OC(C)C)c1" ?
Result block: -1

Query block: Hello, I am checking results. What call was entered for "C/C(=N\NC(=O)c1cccc(S(=O)(=O)N2CCOCC2)c1)c1cc(Cl)ccc1O" ?
Result block: -1

Query block: Hello, I am checking results. What call was entered for "O=C(O)CSc1cc(NS(=O)(=O)c2ccc(Br)cc2)c2ccccc2c1O" ?
Result block: -1

Query block: Hello, I am checking results. What call was entered for "COc1nc(-c2ccc3c(c2)OCO3)n(-c2ccc(NC(=O)CSc3ccccc3)cc2)n1" ?
Result block: -1

Query block: Hello, I am checking results. What call was entered for "Cc1c(C(=O)Nc2ccc(Oc3ccnc4[nH]cc(-c5ccccc5)c34)c(F)c2)c(=O)n(-c2ccc(F)cc2)n1C" ?
Result block: -1

Query block: Hello, I am checking results. What call was entered for "CC(=NNC(=S)N1CCC1)c1ccccn1" ?
Result block: -1

Query block: Hello, I am checking results. What call was entered for "COc1ccc(CCNCc2ccc(OCc3ccc(Cl)nc3)c(OC)c2)cc1OC" ?
Result block: -1

Query block: Hello, I am checking results. What call was entered for "Cc1nn(C)c(COc2ccc(N3CCN(S(=O)(=O)N(C)C)CC3)cc2)c1-c1cccc2c(CCCOc3cccc4ccccc34)c(C(=O)O)n(CCN3CCOCC3)c12" ?
Result block: -1

Query block: Hello, I am checking results. What call was entered for Cc1nc(Nc2ncc(C(=O)Nc3c(C)cccc3Cl)s2)cc(N2CCN(CCO)CC2)n1 [Dasatinib Monohydrate] ?
Result block: -1

Query block: Hello, I am checking results. What call was entered for "CNC(=O)c1ccc(Nc2ncc(C(F)(F)F)c(NCc3nccnc3N(C)S(C)(=O)=O)n2)cc1" ?
Result block: -1

Query block: Hello, I am checking results. What call was entered for "CNC(=O)c1ccccc1Nc1cc(Nc2ccc(N3CCOCC3)cc2OC)ncc1C(F)(F)F" ?
Result block: -1

Query block: Hello, I am checking results. What call was entered for "C[C@H]1Oc2cc(cnc2N)-c2c(nn(C)c2C#N)CN(C)C(=O)c2ccc(F)cc21" ?
Result block: -1

Query block: Hello, I am checking results. What call was entered for "CCCCCCCCCCCC1=C(O)C(=O)C=C(O)C1=O" ?
Result block: -1

Query block: Hello, I am checking results. What call was entered for "CC1(C)CC[C@]2(NC(=O)C(C)(F)F)CC[C@]3(C)[C@H](C(=O)C=C4[C@@]5(C)C=C(C#N)C(=O)C(C)(C)[C@@H]5CC[C@]43C)[C@@H]2C1" ?
Result block: 1

Query block: Hello, I am checking results. What call was entered for "COc1nc(OCc2cccc(-c3ccccc3)c2C)ccc1CNCCNC(C)=O" ?
Result block: -1
